molecular target: Dipeptidase 1 (Sus scrofa) (UniProt P22412); assay: Dehydropeptidase-1 susceptibility.
Sequence (P22412 whole entry): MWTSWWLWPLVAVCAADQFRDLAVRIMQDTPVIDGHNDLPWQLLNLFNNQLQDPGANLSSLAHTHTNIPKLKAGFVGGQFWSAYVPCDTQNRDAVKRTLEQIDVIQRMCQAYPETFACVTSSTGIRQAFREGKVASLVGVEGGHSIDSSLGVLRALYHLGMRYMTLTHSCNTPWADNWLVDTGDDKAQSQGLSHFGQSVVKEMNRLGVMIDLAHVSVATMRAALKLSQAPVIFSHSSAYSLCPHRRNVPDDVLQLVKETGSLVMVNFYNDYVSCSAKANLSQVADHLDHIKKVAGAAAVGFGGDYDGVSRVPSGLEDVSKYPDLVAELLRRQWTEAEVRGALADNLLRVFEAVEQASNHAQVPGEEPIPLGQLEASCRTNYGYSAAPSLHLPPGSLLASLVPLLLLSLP
measured-property: Activity
Give the value as a plain number.

Sample answers from the record:
{"test-smiles": "C[C@@H](O)[C@H]1C(=O)N2C(C(=O)[O-])=C(c3ccc(C[n+]4ccccc4N)cc3)C[C@H]12", "Activity": 0.11}
{"test-smiles": "C[C@@H](O)[C@H]1C(=O)N2C(C(=O)[O-])=C(c3cc(C[n+]4cccc(N)c4)c4ccccc4c3)C[C@H]12", "Activity": 0.01}
{"test-smiles": "C[C@@H](O)[C@H]1C(=O)N2C(C(=O)[O-])=C(c3ccc4cc(C[n+]5ccc(N)cc5)ccc4c3)C[C@H]12", "Activity": 0.26}

From here, focus on the item given below.
Qu. Name the recorded Activity of the item C[C@H](O)[C@H]1C(=O)N2C(C(=O)[O-])=C(c3cc(C[n+]4ccc(N)cc4)c4ccccc4c3)C[C@H]12 in your answer.
Ans. 0.01

---

test system: Staphylococcus aureus; assay: Compound was evaluated for the anti-MRSA activity as MIC50; type: functional
Response field label: string, one of Criterion met (MIC50 strictly below 4 µg/mL) or Criterion not met.

# count of solved cases: 4
{"compound": "C[C@@H](O)[C@H]1C(=O)N2C(C(=O)[O-])=C(c3ccc4cc(C[n+]5ccccc5N)ccc4c3)C[C@H]12", "label-class": "Criterion met"}
{"compound": "C[C@@H](O)[C@H]1C(=O)N2C(C(=O)[O-])=C(c3ccc4cccc(C[n+]5ccc(N)cc5)c4c3)C[C@H]12", "label-class": "Criterion not met"}
{"compound": "C[C@@H](O)[C@H]1C(=O)N2C(C(=O)O)=C(SCCNC=N)C[C@H]12 [IMIPENEM ANHYDROUS]", "label-class": "Criterion not met"}
{"compound": "C[C@H](O)[C@H]1C(=O)N2C(C(=O)[O-])=C(c3cccc(-c4ccc(C[n+]5ccccc5N)cc4)c3)C[C@H]12", "label-class": "Criterion met"}

Let's switch to this compound now.
Qu. Does the reported MIC50 of CN[C@H](CC(C)C)C(=O)N[C@H]1C(=O)N[C@@H](CC(N)=O)C(=O)N[C@H]2C(=O)N[C@H]3C(=O)N[C@H](C(=O)N[C@H](C(=O)O)c4cc(O)cc(O)c4-c4cc3ccc4O)[C@H](O)c3ccc(c(Cl)c3)Oc3cc2cc(c3O[C@@H]2O[C@H](CO)[C@@H](O)[C@H](O)[C@H]2O[C@H]2C[C@](C)(N)[C@H](O)[C@H](C)O2)Oc2ccc(cc2Cl)[C@H]1O [VANCOMYCIN] stay below 4 µg/mL?
Ans. Criterion met

---

molecular target: Dipeptidase 1 (Sus scrofa); experiment: Dehydropeptidase-1 susceptibility.
Measured Activity, listed per entry.
Lab note: write the figure by itself, no unit.

Qu. Provide Activity, recorded with Dipeptidase 1 (Sus scrofa), of C[C@@H](O)[C@H]1C(=O)N2C(C(=O)[O-])=C(c3ccc4cccc(C[n+]5ccc(N)cc5)c4c3)C[C@H]12
Ans. 0.01

Qu. Please look at C[C@@H](O)[C@H]1C(=O)N2C(C(=O)[O-])=C(c3ccc4cc(C[n+]5ccccc5N)ccc4c3)C[C@H]12 and tell me its recorded Activity on Dipeptidase 1 (Sus scrofa).
Ans. 0.2

---

system: Pseudomonas aeruginosa; assay: Compound was evaluated for the antibacterial activity against Pseudomonas aeruginosa as fold improvement in activity with respect to imipenem.; format: functional
measured-property: Activity
Could you keep your reply to the number by itself?

{"compound": "C[C@@H](O)[C@H]1C(=O)N2C(C(=O)[O-])=C(c3ccc4cc(C[n+]5ccc(N)cc5)ccc4c3)C[C@H]12", "Activity": 0.02}

Qu. Give Activity for C[C@@H](O)[C@H]1C(=O)N2C(C(=O)[O-])=C(c3ccc4cccc(C[n+]5ccccc5N)c4c3)C[C@H]12 tested on Pseudomonas aeruginosa.
Ans. 0.02

Qu. Under Pseudomonas aeruginosa: report Activity of CC(O)C1C(=O)N2C(C(=O)O)=C(c3ccc4ccccc4c3)CC12 (centres undefined) .
Ans. 0.01

Qu. Report the value of Activity obtained on Pseudomonas aeruginosa for C[C@@H](O)[C@H]1C(=O)N2C(C(=O)[O-])=C(c3ccc4cc(C[n+]5ccccc5N)ccc4c3)C[C@H]12 .
Ans. 0.02

Qu. GET Activity | system: Pseudomonas aeruginosa | item: C[C@@H](O)[C@H]1C(=O)N2C(C(=O)[O-])=C(c3ccc(C[n+]4ccccc4N)cc3)C[C@H]12
Ans. 0.02

Qu. Look up Pseudomonas aeruginosa data: Activity of C[C@@H](O)[C@H]1C(=O)N2C(C(=O)[O-])=C(c3ccc4cccc(C[n+]5ccc(N)cc5)c4c3)C[C@H]12 , then report it.
Ans. 0.01

---

tested on: Klebsiella; test: Compound was evaluated for the antibacterial activity against Klebsiella.8 as fold improvement in activity with respect to imipenem.; type: functional
measured-property: Activity
# respond with the number and nothing more

Qu. Name the recorded Activity of C[C@@H](O)[C@H]1C(=O)N2C(C(=O)[O-])=C(c3ccc(C[n+]4ccccc4N)cc3)C[C@H]12 , assay system Klebsiella.
Ans. 1.1

Qu. Retrieve Activity on Klebsiella; query C[C@@H](O)[C@H]1C(=O)N2C(C(=O)[O-])=C(c3ccc4ccc(C[n+]5ccc(N)cc5)cc4c3)C[C@H]12
Ans. 0.25

Qu. GET Activity | system: Klebsiella | item: C[C@@H](O)[C@H]1C(=O)N2C(C(=O)[O-])=C(c3ccc4cccc(C[n+]5ccccc5N)c4c3)C[C@H]12
Ans. 0.03

Qu. # return Activity for C[C@@H](O)[C@H]1C(=O)N2C(C(=O)[O-])=C(c3ccc4cccc(C[n+]5ccc(N)cc5)c4c3)C[C@H]12 , test system: Klebsiella
Ans. 0.04

---

test system: Klebsiella; assay: Compound was evaluated for the antibacterial activity against Klebsiella.8 as fold improvement in activity with respect to imipenem.; assay type: functional
measured-property: Activity
Just the number.

{"molecule": "CC(O)C1C(=O)N2C(C(=O)O)=C(c3ccc4ccccc4c3)CC12 (centres undefined)", "Activity": 0.08}

Qu. Return Activity (reported value) for this molecule: C[C@@H](O)[C@H]1C(=O)N2C(C(=O)[O-])=C(c3ccc4c(C[n+]5ccc(N)cc5)cccc4c3)C[C@H]12
Ans. 0.21

Qu. Please report Activity for the following molecule: C[C@@H](O)[C@H]1C(=O)N2C(C(=O)[O-])=C(c3cc(C[n+]4cccc(N)c4)c4ccccc4c3)C[C@H]12
Ans. 0.01

Qu. Respond only with Activity recorded for C[C@@H](O)[C@H]1C(=O)N2C(C(=O)[O-])=C(c3ccc4cc(C[n+]5ccccc5N)ccc4c3)C[C@H]12
Ans. 0.38

---

Overview of recorded Activity for various compounds
test system: Pseudomonas aeruginosa; test: Compound was evaluated for the antibacterial activity against Pseudomonas aeruginosa as fold improvement in activity with respect to imipenem.; type: functional
Please give the numeric answer without any surrounding text.

{"test-smiles": "C[C@H](O)[C@H]1C(=O)N2C(C(=O)[O-])=C(c3cccc(-c4ccc(C[n+]5ccccc5N)cc4)c3)C[C@H]12", "Activity": 0.01}

Qu. With Pseudomonas aeruginosa as the test system, provide measured Activity for this compound: C[C@@H](O)[C@H]1C(=O)N2C(C(=O)[O-])=C(c3ccc4c(C[n+]5ccc(N)cc5)cccc4c3)C[C@H]12
Ans. 0.02

Qu. Enter Activity (test system Pseudomonas aeruginosa) for C[C@@H](O)[C@H]1C(=O)N2C(C(=O)[O-])=C(c3ccc4cc(C[n+]5cccc(N)c5)ccc4c3)C[C@H]12
Ans. 0.02

Qu. Check Pseudomonas aeruginosa data and give Activity for C[C@@H](O)[C@H]1C(=O)N2C(C(=O)[O-])=C(c3cc(C[n+]4cccc(N)c4)c4ccccc4c3)C[C@H]12 .
Ans. 0.01

---

assay: Compound was evaluated for the antibacterial activity against methicillin-resistant coagulase-negative staphylococci (MRCNS)as fold improvement in activity with respect to imipenem.; assay type: functional, Staphylococcus […]
This listing pairs compounds with measured Activity.
Give the figure by itself; no unit, no explanation.

// solved cases for Activity follow
{"compound": "C[C@@H](O)[C@H]1C(=O)N2C(C(=O)[O-])=C(c3ccc4ccc(C[n+]5ccc(N)cc5)cc4c3)C[C@H]12", "value": 55}
{"compound": "CC(O)C1C(=O)N2C(C(=O)O)=C(c3ccc4ccccc4c3)CC12 (stereo unspecified)", "value": 2.7}
{"compound": "C[C@@H](O)[C@H]1C(=O)N2C(C(=O)[O-])=C(c3ccc(C[n+]4ccccc4N)cc3)C[C@H]12", "value": 1.6}
{"compound": "C[C@@H](O)[C@H]1C(=O)N2C(C(=O)[O-])=C(c3ccc4cc(C[n+]5cccc(N)c5)ccc4c3)C[C@H]12", "value": 44}
{"compound": "C[C@H](O)[C@H]1C(=O)N2C(C(=O)[O-])=C(c3cc(C[n+]4ccc(N)cc4)c4ccccc4c3)C[C@H]12", "value": 24}

Qu. Dear colleague, please send me the reported Activity for C[C@@H](O)[C@H]1C(=O)N2C(C(=O)[O-])=C(c3ccc4cccc(C[n+]5ccccc5N)c4c3)C[C@H]12 when you can.
Ans. 8

Origin of the recorded values: ChEMBL document CHEMBL1132139
